Test: soluble on expression in E. coli; label from the status in PepcDB or PDB records
RECORDED_METRIC: soluble on expression in E. coli

GPLGSYGDAIPEVKAILEAKNEEELVTFTSRWSAEERKELRTQFQDTTGLEFIAFLKKCIKNGPYEDVMALGWDCNISARVNVIKKAMKNVNDFRAIHDVVLIATPDERLKLAQAYKEKTGNDLLQDFVDQIPLTSAASYLCHLAIRENRTPRGSVASDAEVLKHNLIDADEPDHEAVVRLIITSTADEYKEINHRFEVLTGKSVQEAIETRYADKENARGLCIAHYYNLAPARAVAYAFHSAVETQNDDMAYEQAARITGLFHDLHKFAWVHYACWGVMRDDILSRFQSKEANKVNFRDACLMFWKLAK | soluble
LHPDKCRAPHATEAFKALGNAYAVLSDTDKRRQYDQYGAEAANSHTPTTRRRGGGHGAFFEHDYAHGFEAEFTPEEIFNMFFGGGFPTEQVRRRARYAQQQQYHHYEQQQSPYGPLLQLLPLIAIMVIGLLAQLMVGEPAYSLHQTSKFTIKRLTADLRVPYFVRTDFETSYRGRIRQVEQQVEDDYIQNLRMNCYKEQNLKETKLYRARWMRDEAMMRDAERTPLPSCIRLNEIYSH | not soluble
MGSDKIHHHHHHMTEIATIEKPAQHGATTRLIDIVFPGDTNHHGTLFGGTGLALMDRVAFIAATRFGRTPFVTASCERIDFRQPARIGHIVEFTARPVKAGRRSLTVEVEMVAETIIGRQQHTCTRGIFHMVAIPEGEDAASYVLPELLTEETPDPSDAVTMVEIVFPDQANSAGRMFGGEAIAYMTKAAFVAASRYCGKLVVLASSERIDFARAIEIGEIVEAQAHVERVGRSSMSIQTKLWSENLLTGERHITATGHFTMVAVDKDHRPATIRDPAEAFSLEKGGA | soluble
MGSDKIHHHHHHMLDPAGARVQIAKGRRDAADEPEDEDQMTRLEAFGDRKFPAAELILSSEGRGWDGIGTQVRRHPAGEIPVPVPDQMEVTLAIAGSQTGRVERRSGSAFQNTTARPGTLWFCPIGVTEDSIRITETLPMVQHVFLAKSQFDSLSELSSRSLSPASIAYLADVNDELVRQICQRIYREAQEETSSGKILIDCLAQSLVAHLVSDYSHDSRIHLGPDSGPSKLDDARLRRVLDYIYGNIDQDLSLSKLSEVACLSKHHFARAFREATGTPPYRFISERRLDHALNLLKDSRLSLAEIAYICRFSSQATFTRAFRRHVGTSPGEYRHLSRT | not soluble
MGALAELAGDEKNGEGSRTFVFTNEGHTLGNALKTIIARYPEVDFCGYTIPHPTEQKLHFRIQSRRDRAIDILKRGLEDLEGLCDHTIVTFEKEMAEFNAMKVENLEHHHHHH | not soluble

# ---- query sequence ----
Inquiry: Record request: soluble on expression in E. coli value, item MSLSSGRTVPTRSHGLGKEGVSTTGASQVEFGDPELTARINDAMVQVEELLHTELSSGEDFLVDIVMHLTRAGGKRFRPMFALLASEFGEKPLSENVIKAAVVVEITHLATLYHDDVMDEASMRRGVPSANARWDNSVAILAGDILLAHASGLMSQLGTDTVAHFAETFGELVTGQMRETVGPRDTDPIEHYTNVIREKTGVLIASAGYLGAMHAGAAPEHIDALKNFGAAVGMIFQIVDDIIDIFSETHESGKTPGTDLREGVFTLPVLYALREDTPVGAELRDILTGPLEDDETVNHVLELLSQSGGRQAALDEVYRYMDIANAELDRLPDSTVKEALRNLATFTVKRVGEGHHHHHH
Reply text: soluble

Values from the DeepSol protein solubility set
